Source: patent US20240409645A1

Listing of recorded PE binding ELISA OD by entry.
# testSystem: T1, mouse common cytokine receptor γ-chain (IL-2Rγ) (mouse, UniProt P34902 23-263, limits assumed)
# T1 construct: Recombinant mouse IL-2Rγ protein; also called mo IL-2R; mouse IL-2R gamma
# T1 sequence (looked up): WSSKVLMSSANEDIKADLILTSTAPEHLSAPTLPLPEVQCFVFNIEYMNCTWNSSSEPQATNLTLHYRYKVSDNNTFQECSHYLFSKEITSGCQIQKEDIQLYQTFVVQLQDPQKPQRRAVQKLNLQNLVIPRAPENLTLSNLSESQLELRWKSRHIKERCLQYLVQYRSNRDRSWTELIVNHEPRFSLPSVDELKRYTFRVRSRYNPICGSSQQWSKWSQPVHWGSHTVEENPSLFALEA
# methodNotes: P.E. binding ELISA
attributeMeasured: PE binding ELISA OD (OD450 nm)

>>> measurednumber("FJ1427_P035MP07H04 (VHH, tested as periplasmic extract; also called Clone nr) VHH: QVQLVESGGGLVQAGGSLRLSCAASGRTLSRYAMGWFRQAPGKEREFVAAMSWGGDTFYADSVEGRFTFSRDNAEIAVYLQMNSLQPEDTAVYYCAAAPTSFATTAYSSSNSYAYWGQGTQVTVSH")
0.052
>>> measurednumber("FJ1427_P035MP07B04 (VHH, tested as periplasmic extract; also called Clone nr; 602) VHH: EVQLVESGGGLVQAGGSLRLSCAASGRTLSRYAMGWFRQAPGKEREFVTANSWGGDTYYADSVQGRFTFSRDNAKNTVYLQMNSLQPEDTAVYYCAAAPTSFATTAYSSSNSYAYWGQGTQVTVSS")
0.047
>>> measurednumber("FJ1427_P035MP07D06 (VHH, tested as periplasmic extract; also called Clone nr; 620) VHH: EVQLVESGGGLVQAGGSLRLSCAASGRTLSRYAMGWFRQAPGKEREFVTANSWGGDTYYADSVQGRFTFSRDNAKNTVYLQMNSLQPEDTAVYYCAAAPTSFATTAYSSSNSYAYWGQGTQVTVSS")
0.045
>>> measurednumber("FJ1427_P035MP07C07 (VHH, tested as periplasmic extract; also called Clone nr; 627) VHH: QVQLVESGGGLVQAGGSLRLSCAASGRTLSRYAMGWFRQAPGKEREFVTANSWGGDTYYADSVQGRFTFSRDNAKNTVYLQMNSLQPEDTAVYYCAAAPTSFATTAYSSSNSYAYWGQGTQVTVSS")
0.047
>>> measurednumber("FJ1427_P035MP07A02 (VHH, tested as periplasmic extract; also called Clone nr) VHH: QVQLVESGGGLVQAGGSLRLSCAASGRALSRLAMGWFRQAPGKEREFVVASSWGDDTFYADSVKGRFTFSRDNAKNTVYLQMNSLQPGDTAVYYCAAAPTSFATTAYSSSNSYAYWGQGTQVTASS")
0.063
>>> measurednumber("FJ1427_P035MP07H08 (VHH, tested as periplasmic extract; also called Clone nr; 640) VHH: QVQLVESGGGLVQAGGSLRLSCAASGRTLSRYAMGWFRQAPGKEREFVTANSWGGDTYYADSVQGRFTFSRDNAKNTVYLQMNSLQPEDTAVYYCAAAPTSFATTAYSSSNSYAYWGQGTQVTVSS")
0.047
>>> measurednumber("FJ1427_P035MP07B09 (VHH, tested as periplasmic extract; also called Clone nr) VHH: QVQLVESGGGLVQAGGSLRLSCAASGRALSRLAMGWFRQAPGKEREFVVASSWGDDTFYADSVKGRFTFSRDNAKNTVYLQMNSLQPGDTAVYYCAAAPTSFATTAYSSSNSYAYWGQGTQVTVSS")
0.082
>>> measurednumber("FJ1427_P035MP07D10 (VHH, tested as periplasmic extract; also called Clone nr) VHH: QVQLVESGGGLVQAGGSLRLSCAASGRTLSRYAMGWFRQAPGKEREFVAADSWGGDTYYDDSVEGRFTFSRDIAKNAVYLQMNSLQPEDTAVYYCAAAPTSFATTAYSSSNSYAYWGQGTQVTVSS")
0.048
